assay: Half-lives of hydrolysis of the prodrugs in phosphate buffer at pH 7.4; conditions: pH 7.4, Half-life of hydrolysis, Buffer, phosphate buffer at ph 7.4
testReadout: half-life (h)
State the answer as a number, implicitly in h.

**Q:** Please look up its half-life: O=C(O)COCC(=O)OCC1CCC(n2cnc3c(=O)[nH]cnc32)O1 (stereo not shown)
**A:** 9.4

**Q:** // lookup half-life for COCCOCC(=O)OCC1OC(n2cc(C)c(=O)[nH]c2=O)CC1N=[N+]=[N-] (stereo not shown)
**A:** 13.3

**Q:** What value of half-life has been reported for the following molecule? CN(C)CCOC(=O)COCC(=O)O[C@H](CN1CC[C@H]2CCCC[C@H]2[C@H]1C(=O)NC(C)(C)C)[C@H](Cc1ccccc1)NC(=O)[C@H](CC(N)=O)NC(=O)c1ccc2ccccc2n1
**A:** 10

**Q:** Fill in the blank: the reported half-life of Nc1ccn(C2CCC(COC(=O)COCCOCCO)O2)c(=O)n1 (stereo not shown) is ____.
**A:** 30

**Q:** Suppose we examine the molecule CC[C@@]1(OC(=O)COCCOC)C(=O)OCc2c1cc1n(c2=O)Cc2cc3ccccc3nc2-1 ; what half-life value has been reported?
**A:** 26

**Q:** Any idea what half-life was measured for COC(=O)COCC(=O)O[C@H](CN1CC[C@H]2CCCC[C@H]2[C@H]1C(=O)NC(C)(C)C)[C@H](Cc1ccccc1)NC(=O)[C@H](CC(N)=O)NC(=O)c1ccc2ccccc2n1 ?
**A:** 2.5

**Q:** Item CC(C)(C)OC(=O)COCC(=O)OCCOCn1cnc2c(=O)[nH]c(N)nc21 has what recorded half-life?
**A:** 16

**Q:** Query (molecule): COCCOCC(=O)OCn1c(=O)[nH]cc(F)c1=O ; field requested: half-life
**A:** 9.1

**Q:** Tell me the measured half-life of COCCOCC(=O)OCn1cc(F)c(=O)[nH]c1=O , please.
**A:** 1.47

**Q:** I have this molecule here, CC(C)(C)OC(=O)COCC(=O)Nc1ccn(C2CCC(COC(=O)COCC(=O)OC(C)(C)C)O2)c(=O)n1 (stereo not shown) , and I need its recorded half-life.
**A:** 6.2

**Q:** Using the record for Cc1cn(C2CC(N=[N+]=[N-])C(COC(=O)COCCOCCO)O2)c(=O)[nH]c1=O (stereo not shown) , report its half-life.
**A:** 21

**Q:** # query: half-life of entry COC(=O)COCC(=O)O[C@@H](C[C@H](Cc1ccccc1)NC(=O)[C@@H](NC(=O)N(C)Cc1csc(C(C)C)n1)C(C)C)[C@H](Cc1ccccc1)NC(=O)OCc1cncs1
**A:** 5.5

**Q:** For CC(C)OC(=O)COCC(=O)OCC1CCC(n2ccc(N)nc2=O)O1 (stereo not shown) , what is its reported half-life?
**A:** 8.2

**Q:** Which value of half-life has been reported for CC(C)OC(=O)COCC(=O)O[C@H](CN1CC[C@H]2CCCC[C@H]2[C@H]1C(=O)NC(C)(C)C)[C@H](Cc1ccccc1)NC(=O)[C@H](CC(N)=O)NC(=O)c1ccc2ccccc2n1 in the records?
**A:** 5

**Q:** Which measured half-life value corresponds to COCCOCCOCC(=O)OCCOCn1cnc2c(=O)[nH]c(N)nc21 ?
**A:** 22

----------
test: physchem; details: buffer, pH 7.4, Half-life of hydrolysis
testReadout: half-life (h)
Dear colleague, please return just the value in h, with no unit written.

**Q:** Quick one: half-life of COCCOCCOCC(=O)OCC(=O)[C@@]12OC(C)(C)O[C@@H]1CC1C3CCC4=CC(=O)C=CC4(C)[C@@]3(F)[C@@H](O)CC12C (stereo partly drawn) ?
**A:** 12

**Q:** Which half-life is listed for COCCOCC(=O)OCC(=O)[C@@]12OC(C)(C)O[C@@H]1CC1C3CCC4=CC(=O)C=CC4(C)[C@@]3(F)[C@@H](O)CC12C (stereo partly drawn) ?
**A:** 15

**Q:** Name the recorded half-life for CC1(C)O[C@@H]2CC3C4CCC5=CC(=O)C=CC5(C)[C@@]4(F)[C@@H](O)CC3(C)[C@]2(C(=O)COC(=O)COCC(=O)O)O1 (stereo partly drawn) .
**A:** 1

----------
assay: Half-lives of hydrolysis of the prodrugs in phosphate buffer at pH 7.4; conditions: pH 7.4, Half-life of hydrolysis, Buffer, phosphate buffer at ph 7.4
Exercise: for every item that follows, state its recorded half-life.

**Q:** # lookup: half-life of CC(C)OC(=O)COCC(=O)Nc1ccn(C2CCC(COC(=O)COCC(=O)OC(C)C)O2)c(=O)n1 (stereo not shown)
**A:** 5.6 h

**Q:** Can you look up the measured half-life of COCCOCCOCC(=O)OCn1c(=O)[nH]cc(F)c1=O for me?
**A:** 7.28 h

**Q:** Quick check: half-life of CC(C)(C)NC(=O)[C@@H]1[C@@H]2CCCC[C@@H]2CCN1C[C@@H](OC(=O)COCC(=O)OC(C)(C)C)[C@H](Cc1ccccc1)NC(=O)[C@H](CC(N)=O)NC(=O)c1ccc2ccccc2n1 ?
**A:** 10 h

**Q:** // half-life lookup, key: CC(C)c1nc(CN(C)C(=O)N[C@H](C(=O)N[C@@H](Cc2ccccc2)C[C@H](OC(=O)COCC(=O)OCCOCCN(C)C)[C@H](Cc2ccccc2)NC(=O)OCc2cncs2)C(C)C)cs1
**A:** 2.2 h

**Q:** State the recorded half-life for this entry: COCCOCCOCC(=O)OCC1OC(n2cc(C)c(=O)[nH]c2=O)CC1N=[N+]=[N-] (stereo not shown)
**A:** 12.3 h

**Q:** Can you look up the measured half-life of COCCOCC(=O)OCC1CCC(n2cnc3c(=O)[nH]cnc32)O1 (stereo not shown) for me?
**A:** 40 h

**Q:** Param item = COCCOCC(=O)O[C@@H](C[C@H](Cc1ccccc1)NC(=O)[C@@H](NC(=O)N(C)Cc1csc(C(C)C)n1)C(C)C)[C@H](Cc1ccccc1)NC(=O)OCc1cncs1 ; retrieve measured half-life.
**A:** > 48 h

**Q:** What value of half-life has been reported for the following compound? COCCOCCOCC(=O)OCC(CO)OCn1cnc2c(=O)[nH]c(N)nc21 (stereo not shown)
**A:** 26 h

**Q:** Entry COCCOCC(=O)OCCOCn1cnc2c(=O)[nH]c(N)nc21 has what half-life?
**A:** 30 h

**Q:** What half-life value was documented for this compound, Nc1nc2c(ncn2COCCOC(=O)COCC(=O)O)c(=O)[nH]1 ?
**A:** 40 h

**Q:** Suppose we examine the compound CC(C)c1nc(CN(C)C(=O)N[C@H](C(=O)N[C@@H](Cc2ccccc2)C[C@H](OC(=O)COCC(=O)O)[C@H](Cc2ccccc2)NC(=O)OCc2cncs2)C(C)C)cs1 ; what half-life value has been reported?
**A:** > 240 h

**Q:** Bench note: what half-life did O=C(COCCOCCO)OCC1CCC(n2cnc3c(=O)[nH]cnc32)O1 (stereo not shown) show?
**A:** 46 h

**Q:** Could you share which half-life value was measured for COCCOCCOCC(=O)OCC1CCC(n2cnc3c(=O)[nH]cnc32)O1 (stereo not shown) ?
**A:** 30 h

----------
assay: Half-lives of hydrolysis of the prodrugs in human serum; conditions: Half-life of hydrolysis, Serum (to mono), hydrolysis to mono
Task for the reader: assign each of the following molecules its reported half-life.

**Q:** I am curious: what half-life value has been reported for COCCOCCOCC(=O)OCn1cc(F)c(=O)n(COC(=O)COCCOCCOC)c1=O ?
**A:** 30 s

**Q:** Could you tell me which half-life is on file for COCCOCC(=O)OCn1cc(F)c(=O)n(COC(=O)COCCOC)c1=O ?
**A:** 12 s

**Q:** Data request, read-out half-life, for O=C(COCCOCCO)Nc1ccn(C2CCC(COC(=O)COCCOCCO)O2)c(=O)n1 (stereo not drawn)
**A:** 300 s

----------
experiment: Half-lives of hydrolysis of the prodrugs in human serum
testReadout: half-life
Answer with the number, then the unit.

**Q:** Reported half-life for CC[C@@]1(OC(=O)COCCOCCOC)C(=O)OCc2c1cc1n(c2=O)Cc2cc3ccccc3nc2-1 : what is it?
**A:** 120 min

**Q:** What half-life value was documented for this molecule, COc1ccc(/C=C\c2cc(OC)c(OC)c(OC)c2)cc1OC(=O)COCC(=O)O ?
**A:** 2 min

**Q:** Look at this molecule and give its reported half-life. COC(=O)COCC(=O)Oc1cc(/C=C\c2cc(OC)c(OC)c(OC)c2)ccc1OC
**A:** 2.5 min

**Q:** Which measured half-life value corresponds to CC[C@@]1(OC(=O)COCCOCCO)C(=O)OCc2c1cc1n(c2=O)Cc2cc3ccccc3nc2-1 ?
**A:** 114 min
